# protocolSummary: Rat IV/PO pharmacokinetics
# Assay type: in vivo, Sprague-Dawley rat
# runParameters: plasma, male Sprague-Dawley rats (n = 2), IV 1 mg/kg
Each entry below carries its reported MRT.
assayMetric: MRT

[[record]]
compound = "Cc1csc(NC(=O)c2cc(O[C@@H]3CCOC3)c3sccc3n2)n1 [19aA]"
assaymetric = "MRT"
result = "2.45 h"

[[record]]
compound = "Cc1csc(NC(=O)c2cc(O[C@@H]3CCOC3)cc(F)c2F)n1 [27cA]"
assaymetric = "MRT"
result = "1.44 h"


----------
# protocolSummary: Rat IV/PO pharmacokinetics
# Format: in vivo, Sprague-Dawley rat
# runParameters: plasma, male Sprague-Dawley rats (n = 2), IV 1 mg/kg, read-out: V ss
assayMetric: Vd (L/kg)

[[record]]
compound = "Cc1csc(NC(=O)c2cc(O[C@@H]3CCOC3)cc(F)c2F)n1 [27cA]"
assaymetric = "Vd"
resultunits = "L/kg"
number = 2.89

[[record]]
compound = "Cc1csc(NC(=O)c2cc(O[C@@H]3CCOC3)c3sccc3n2)n1 [19aA]"
assaymetric = "Vd"
resultunits = "L/kg"
number = 6.67

